assay: NCI Yeast Anticancer Drug Screen. Data for the mec2-1 strain (AID 157); conditions: S. cerevisiae mec2-1 strain, at 50.0 µM
Compounds without any hit were thinned out: in the full panel of roughly 79,000, 15% have a hit. Activity calls are given as the source filed them. Cut-off read from the data, not from the text of the source: active = growth inhibition above about 70%; inactive = the rest.
Classes used: active, inactive

compound	classification
c1cc(CCN2CCCCC2)ccn1	inactive
O=NN(CS(=O)(=O)O)c1ccccc1	inactive
CO[C@H]1C[C@H](O[C@H]2CC[C@]3(C=O)[C@H]4CC[C@]5(C)[C@@H](C6=CC(=O)OC6)CC[C@]5(O)[C@@H]4CC[C@]3(O)C2)O[C@H](C)[C@H]1O[C@@H]1O[C@H](CO)[C@@H](O)[C@H](O)[C@H]1O	inactive
CN1C(=O)C23CC4=CC=CC(O)C4N2C(=O)C1(CO)SS3 (centres undefined)	active
CCC[CH2][Sn]([CH3])([CH3])[CH2]CC[N+](C)(C)C	inactive
CC1(C)C(=O)C=CC2(C)C3CCC4(C)C(O)CCC4(C)C3CCC12 (centres undefined)	inactive
CP1(=O)CCC23CCCCC21O3 (centres undefined)	inactive
O=C(O)CC(S)C(=O)O (centres undefined)	inactive
O=S(=O)(c1ccccc1)N1C2CCCC21 (centres undefined)	inactive
CC1(C)N=C(N)N=C(N)N1c1ccc(Cl)c(CCCCc2ccc(S(=O)(=O)F)cc2)c1	active
CCCCSP(=S)(SCCCC)SCCCC	inactive
c1ccc(C[As](c2ccccc2)c2ccccc2)cc1	active
C/C(=C\COc1ccc2ccc(=O)oc2c1)C1=CC(=O)C(C)(C)O1	inactive
COc1ccc(/C=C(\C)[N+](=O)[O-])cc1OC	active
CC1=C(O)C(=O)[C@@H]2O[C@@H]2C1=O	inactive
O=[N+]([O-])c1ccc([Se]c2ncccn2)c([N+](=O)[O-])c1	inactive
CCCC(C)OP(=O)(OCC)OCC (centres undefined)	inactive
OCC1N2CCC(CC2)C1(O)O (centres undefined)	inactive
O=C(CBr)Nc1ccc(Cl)cc1	active
[CH3][Pb]([CH3])([CH3])[O]C(=O)c1ccc([N+](=O)[O-])cc1	inactive
O=[N+]([O-])/C=C/c1ccc(Cl)cc1[N+](=O)[O-]	active
COc1ccc(C[As+](c2ccccc2)(c2ccccc2)c2ccccc2)cc1	active
C/C=C1/C(=O)O[C@]23C=C[C@@H]4C(C(=O)OC)=CO[C@H](O[C@@H]12)[C@@H]43	active
COc1cc(OC)cc(C(=O)Cc2c(C(=O)c3ccccc3)c3ccccc3n2C(=O)c2ccccc2)c1	inactive

---

experiment: NCI Yeast Anticancer Drug Screen. Data for the bub3 strain (AID 167); details: S. cerevisiae bub3 mutant strain, at 50.0 µM, hits give high values
About 79,000 compounds went through this panel and 15% of them were active in at least one assay; those are over-represented in the sample as a whole.
The following compounds are listed with their measured growth inhibition values.

compound	unitDescriptor	growth inhibition
O=c1[nH]c(=S)[nH]c(O)c1/C=C1\C=CC=N1	%	3.3
O=[As](O)(O)c1ccccc1	%	-38.1
CCOP(=O)(OCC)Oc1ccc([N+](=O)[O-])c(CC)c1	%	18.5
C/C(=N\N(C)C)C(CN(C)C)C(c1ccccc1)c1c(O)c2ccccc2oc1=O (stereo unspecified)	%	37.8
OC1C2CCCCN2C[C@@H](O)[C@H]1O (stereo partly specified)	%	12
NC(=O)CCCc1ccc([As]=O)cc1 (stereo unspecified)	%	-0.25
C1=C[N-]c2c3c(ccc2=C1)=CC=C[N-]3.C1=C[N-]c2c3c(ccc2=C1)=CC=C[N-]3.F[P-](F)(F)(F)(F)F.[Cu+2]	%	99.2
CC(=O)C1C=NCCN=CC(C(C)=O)C(C)=NCCCN=C1C.[Ni] (stereo unspecified)	%	8.7
CNC(=O)Oc1ccc2c(C)cc(=O)oc2c1	%	17.2
COC12c3c(C)cc(O)c4c(=O)occ(c34)C(=O)C1C13COC(=O)c4c(O)cc(C)c(c41)C(=O)C2C3OC(C)=O (stereo unspecified)	%	91.1
CC(=O)C(C(C)=O)C(=O)c1ccc([N+](=O)[O-])cc1.[Cr]	%	28.5
CC1c2c(n(C)c3ccccc23)C2CCC3(CO3)C1N2Cc1ccccc1 (stereo unspecified)	%	92.5
O=C(N/N=C/c1cc(Br)cc(Br)c1[O-])c1ccccc1O.O=C(N/N=C/c1cc(Br)cc(Br)c1[O-])c1ccccc1O.[Ni+2]	%	85.5
Cn1cnc([N+](=O)[O-])c1C(=O)O	%	-17.9
CN1C2CCC1CC(OC(=O)C1CCC(C(=O)OC3CC4CCC(C3)N4C)(c3ccccc3)c3ccccc31)C2 (stereo unspecified)	%	-34.4
COc1cc(C(=O)[O][Hg][CH2]C2CC(O)CC([CH2][Hg][O]C(=O)c3cc(OC)c(OC)c(OC)c3)O2)cc(OC)c1OC (stereo unspecified)	%	99.1
NC1(O)C(=O)NC(=O)NC1=O	%	-4.05
O=C(O)CC1OCC=C2CN3CCC45c6ccccc6NC4C1C2CC35 (stereo unspecified)	%	-57.6
[CH3][Sn]([CH3])([CH3])[O]C(=O)CNC(=O)c1ccccc1	%	4.25
CCN(CC)C(=O)N1CN(c2ccccc2)C2(CCN(CCCSc3ccc(F)cc3)CC2)C1=O	%	48.4
[CH3][Sn]([CH3])([CH3])[S]C(=S)N1CCOCC1	%	98.5

---

The following molecules are listed with their measured growth inhibition values.
assay: NCI Yeast Anticancer Drug Screen. Data for the cln2 rad14 strain (AID 165);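 note: 0% = growth equal to vehicle treated cultures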; conditions: S. cerevisiae cln2 rad14 strain, at 50.0 µM, hits give high values
This is part of a sample that, as a whole, favours compounds with a hit. Of some 79,000 tested, about 15% had one in any assay.

molecule	growth inhibition / %
[CH3][Sn]([c]1ccccc1)[c]1ccccc1	-11
O=C1CC23c4ccccc4N4C(=O)CC5OCC=C6CN1C2CC6C5C43 (configuration not stated)	7.9
O=[N+]([O-])c1cc([N+](=O)[O-])c(Cl)s1	99.3
OCC1C(/C=C/c2ccoc2)ON2CCCC12 (configuration not stated)	26.6
CC(C)c1ccc(-n2c(=S)[nH]c3ccccc3c2=O)cc1	-25
CC(N)CCc1ccccc1 (configuration not stated)	24.7
CC(=N\O)/C(C)=N/O.CC(=N\O)/C(C)=N/O.CC(=N\O)/C(C)=N/O.CC(=N\O)/C(C)=N/O.[CH3-].[CH3-].[Co].[Co]	2.8

---

experiment: NCI Yeast Anticancer Drug Screen. Data for the bub3 strain (AID 167); conditions: S. cerevisiae bub3 mutant strain, at 50.0 µM
The panel holds about 79,000 compounds, 15% with a hit somewhere; the sample as a whole holds those more often. Calls of active or inactive are those of the source. No stated cut-off is given here; in the data, active means growth inhibition above about 70%; inactive means the rest.
Classes used: yes (1) = active, no (0) = inactive

molecule	classification
C#CC(/C=C/Cl)(CC)OC(N)=O (stereo unspecified)	no (0)
COC(C(=O)O)(c1ccccc1)c1ccccc1	no (0)
CC(C)CCCCCc1ccc(OCCOc2ccc(C(=O)Nc3ccc(S(=O)(=O)F)cc3[N+](=O)[O-])cc2)cc1	no (0)
CC1(Cl)CC2C(CC1Sc1nnnn1-c1ccccc1)C2(C)C (stereo unspecified)	no (0)
O=C1NC(=O)C(=O)C(=O)N1	no (0)
Cc1c(O)c(O)c(C)c(CCN)c1O	no (0)
O=c1ccc(N=Cc2ccc(N(CCCl)CCCl)cc2)ccc1O	yes (1)
O=C([O][Hg][CH2]C1COC([CH2][Hg][O]C(=O)c2ccccc2)CO1)c1ccccc1 (stereo unspecified)	yes (1)
O=C1CCC(=O)N1SC(Cl)(Cl)Cl	yes (1)
C=CC[NH-].C=CC[NH-].CC(=O)CC(C)=O.CC(=O)CC(C)=O.[Ni+2]	no (0)
CC(C)CC(=O)[O-].N.N.N.N.N.[Co+3].[O-][Cl+3]([O-])([O-])[O-]	no (0)

---

experiment: NCI Yeast Anticancer Drug Screen. Data for the bub3 strain (AID 167); details: S. cerevisiae bub3 mutant strain, at 50.0 µM (retest, dose inferred, filed as 5.0), hits give high values
The panel holds about 79,000 compounds, 15% with a hit somewhere; the sample as a whole holds those more often.

compound	unitDescriptor	growth inhibition
O=[N+]([O-])c1ccc(C(Br)Br)cc1	%	99
C[N+](C)(C)CC1CCCC1=O (configuration not stated)	%	70
CCCCCCCC(=O)[O][Hg][c]1ccccc1	%	99
C[CH2][Sn]1([CH2]C)[O]C2C(OC)OC3COC(c4ccccc4)OC3C2[O]1 (configuration not stated)	%	40
COC1OC(CO)C(O)C(O)[CH]1[Hg][Cl] (configuration not stated)	%	99
C[CH2][Sn]1([CH2]C)[O]S(=O)(=O)[O]1	%	92
C/C1=C\[C@H](C)C[C@H](C)OC(=O)C[C@H](c2ccc(O)cc2)NC(=O)[C@@H](Cc2c(Br)[nH]c3ccccc23)N(C)C(=O)[C@H](C)NC(=O)[C@@H](C)C1	%	99
